- TESTED TARGET: dopamine D2 receptor (Homo sapiens (Human), UniProt P14416)
- Sequence (P14416 whole entry): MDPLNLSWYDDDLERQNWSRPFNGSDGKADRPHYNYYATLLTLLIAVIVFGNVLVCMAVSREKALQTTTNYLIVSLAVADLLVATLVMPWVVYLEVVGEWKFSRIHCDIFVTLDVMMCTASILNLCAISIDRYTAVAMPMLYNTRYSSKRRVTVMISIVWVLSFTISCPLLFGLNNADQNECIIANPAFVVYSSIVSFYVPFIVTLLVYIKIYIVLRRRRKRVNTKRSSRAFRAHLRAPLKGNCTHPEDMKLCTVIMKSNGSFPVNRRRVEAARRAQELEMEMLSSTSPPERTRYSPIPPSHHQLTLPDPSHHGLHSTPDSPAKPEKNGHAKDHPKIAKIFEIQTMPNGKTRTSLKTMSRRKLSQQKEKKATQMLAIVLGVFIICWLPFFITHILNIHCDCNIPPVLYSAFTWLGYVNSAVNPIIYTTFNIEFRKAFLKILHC
- ASSAY DETAILS: Test IV: dopamine D2 receptor binding activity (GeneBLAzer D2-Gqo5-NEAT-bla CHO-K1 Cell-based Assay)
- MEASUREMENT PARAMETERS: CHO-K1 reporter cells, 5 hours
ASSAY METRIC: Dopamine D2 receptor binding activity, Activity intensity

These solved cases illustrate the format of a correct answer.
CCOc1ccc2c(c1O)-c1cccc3c1[C@@H](C2)N(C)CC3 [D55] = −
CN1CCc2cccc3c2[C@H]1Cc1ccc(-c2ccccc2)c(O)c1-3 [D45] = ±
COc1cc2c3c(c1O)-c1c(ccc(OC)c1OC)CC3N(C)CC2 (stereo not drawn) [D26] = −
CN1CCc2cc3c(c4c2[C@H]1Cc1ccccc1-4)OCO3 [D18] = −

Lab note: each molecule below needs its Dopamine D2 receptor binding activity, Activity intensity filled in.
1. COc1cc2c(cc1OC)-c1c3c(c(OC)c4c1C(C2)N(C)CC4)OCO3 (stereo not drawn) [D20]
2. CN1CCc2cccc3c2[C@H]1Cc1ccc(OCCc2ccccc2)c(O)c1-3 [D48]

Solution:
1: −; 2: −

###

- Test system: Leigh syndrome patient cells (KCMC10)
- ASSAY DETAILS: Test III: suppression of BSO-induced ferroptosis, Leigh syndrome patient cells
- Assay type: cell-based, human
- MEASUREMENT PARAMETERS: Homo sapiens; Leigh syndrome patient cells (KCMC10), BSO; read-out: EC50 (50% effective concentration of the suppressive effect on cell death ascribable to ferroptosis induced by BSO)
ASSAY METRIC: pEC50
Give bare numbers, as −log10 of the molar value.

Some solved cases for reference:
CN1CCc2cccc3c2[C@H]1Cc1ccc(OCCCC(F)(F)F)c(O)c1-3.Cl [D42] = 6.78
CN1CCc2cc3c(c4c2[C@H]1Cc1ccccc1-4)OCO3 [D18] = 6.31
CN1CCc2cccc3c2[C@H]1Cc1ccc(OCCCCc2ccccc2)c(O)c1-3 [D50] = 6.68
CCCCOc1ccc2c(c1O)-c1cccc3c1[C@@H](C2)N(C)CC3.Cl [D36] = 6.91

Then this molecule:
Problem: Answer with reported pEC50 of CN1CCc2cccc3c2[C@H]1Cc1ccc(-c2ccccc2)c(O)c1-3 [D45]
Solution: 7.02

###

- TESTED TARGET: dopamine D2 receptor (Homo sapiens (Human), UniProt P14416)
- ASSAY DETAILS: Test IV: dopamine D2 receptor binding activity (GeneBLAzer D2-Gqo5-NEAT-bla CHO-K1 Cell-based Assay)
- MEASUREMENT PARAMETERS: CHO-K1 reporter cells, 5 hours
ASSAY METRIC: Dopamine D2 receptor binding activity, Activity intensity

CN1CCc2cccc3c2[C@H]1Cc1ccc(OCCCO)c(O)c1-3.Cl [D38] = ±
CCCOc1ccc2c(c1O)-c1cccc3c1[C@@H](C2)N(C)CC3.Cl [D40] = −
COc1ccc2c(c1OC)C[C@@H]1c3c(cc4c(c3-2)OCO4)CCN1C [D8] = −

###

- Test system: Leigh syndrome patient cells (KCMC10)
- ASSAY DETAILS: Test III: suppression of BSO-induced ferroptosis, Leigh syndrome patient cells
- Type: cell-based, human
- MEASUREMENT PARAMETERS: Homo sapiens; Leigh syndrome patient cells (KCMC10), BSO; read-out: EC50 (50% effective concentration of the suppressive effect on cell death ascribable to ferroptosis induced by BSO)
- Excerpt: Apomorphine and idebenone approved as a therapeutic drug for Leber's hereditary optic neuropathy in the Europe were used as control drugs. In the drawing, A depicts the results obtained using compounds D8, D9, D10, D18, D20, D26, and D36, and B depicts the results obtained using compounds D37, D38, D39, D40, D41, D42, and D43. […]
pEC50: −log10 of the molar value.
Param threshold (7) applies to pEC50; output TRUE when value >= threshold, FALSE when value < threshold.

Past entries and their recorded results:
COc1cc(O)c2c(c1)C[C@@H]1c3c(cc4c(c3-2)OCO4)CCN1C = FALSE
COc1cccc2c1C[C@@H]1c3c(cc4c(c3-2)OCO4)CCN1C = FALSE
COc1ccc2c(c1O)-c1c(OC)c(OC)cc3c1[C@@H](C2)N(C)CC3 = FALSE
CN1CCc2cccc3c2[C@H]1Cc1ccc(OCCCCl)c(O)c1-3.Cl = FALSE
CN1CCc2cccc3c2[C@H]1Cc1ccc(OCCCc2ccccc2)c(O)c1-3.Cl = FALSE
CCCOc1ccc2c(c1O)-c1cccc3c1[C@@H](C2)N(C)CC3.Cl = TRUE

Problem: Test whether the molecule CCOc1ccc2c(c1O)-c1cccc3c1[C@@H](C2)N(C)CC3 records pEC50 of 7 or higher.
Solution: TRUE

Problem: Answer whether pEC50 of COc1ccc2c(c1OC)C[C@@H]1c3c(cc4c(c3-2)OCO4)CCN1C is greater than or equal to 7.
Solution: FALSE

###

- TESTED TARGET: dopamine D2 receptor (Homo sapiens (Human), UniProt P14416)
- ASSAY DETAILS: Test IV: dopamine D2 receptor binding activity (GeneBLAzer D2-Gqo5-NEAT-bla CHO-K1 Cell-based Assay)
ASSAY METRIC: dopamine D2 receptor binding activity (in words)

COc1cccc2c1C[C@@H]1c3c(cc4c(c3-2)OCO4)CCN1C [D9] = no or little
CN1CCc2cccc3c2[C@H]1Cc1ccc(OCCCCl)c(O)c1-3.Cl [D39] = no or little
CN1CCc2cccc3c2[C@H]1Cc1ccc(-c2ccccc2)c(O)c1-3 [D45] = no or little
CN1CCc2cccc3c2[C@H]1Cc1ccc(OCCc2ccccc2)c(O)c1-3 [D48] = no or little
CN1CCc2cccc3c2[C@H]1Cc1ccc(OCCC(c2ccccc2)c2ccccc2)c(O)c1-3 [D54] = no or little

Quick batch: dopamine D2 receptor binding activity (in words) for everything below.
1. CN1CCc2cccc3c2[C@H]1Cc1ccc(OCCCc2ccccc2)c(O)c1-3.Cl [D37]
2. CN1CCc2cc3c(c4c2[C@H]1Cc1ccccc1-4)OCO3 [D18]
3. COc1ccc2c(c1O)-c1c(OC)c(OC)cc3c1[C@@H](C2)N(C)CC3 [D43]
4. CN1CCc2cccc3c2[C@H]1Cc1ccc(OCCCC(F)(F)F)c(O)c1-3.Cl [D42]
5. CN1CCc2cccc3c2[C@H]1Cc1ccc(OCc2ccccc2)c(O)c1-3 [D47]

Solution:
no or little
no or little
no or little
no or little
no or little

###

- TESTED TARGET: dopamine D2 receptor (Homo sapiens (Human), UniProt P14416)
- ASSAY DETAILS: Test IV: dopamine D2 receptor binding activity (GeneBLAzer D2-Gqo5-NEAT-bla CHO-K1 Cell-based Assay)
- MEASUREMENT PARAMETERS: CHO-K1 reporter cells, 5 hours
ASSAY METRIC: Dopamine D2 receptor binding activity, Activity intensity

CN1CCc2cccc3c2[C@H]1Cc1ccc(OCCCc2ccccc2)c(O)c1-3.Cl = −
CN1CCc2cccc3c2[C@H]1Cc1ccc(O)c(O)c1-3 = ++
COc1ccc2c(c1O)-c1c(OC)c(OC)cc3c1[C@@H](C2)N(C)CC3 = −

###

- Test system: Leigh syndrome patient cells (KCMC10)
- ASSAY DETAILS: Test III: suppression of BSO-induced ferroptosis, Leigh syndrome patient cells
- Type: cell-based, human
- MEASUREMENT PARAMETERS: Homo sapiens; Leigh syndrome patient cells (KCMC10), BSO; read-out: EC50 (50% effective concentration of the suppressive effect on cell death ascribable to ferroptosis induced by BSO)
- Description: Apomorphine and idebenone approved as a therapeutic drug for Leber's hereditary optic neuropathy in the Europe were used as control drugs. In the drawing, A depicts the results obtained using compounds D8, D9, D10, D18, D20, D26, and D36, and B depicts the results obtained using compounds D37, D38, D39, D40, D41, D42, and D43. […]
Mark Yes for EC50 under 600 nM, No if at or over.

Past entries and their recorded results:
CN1CCc2cccc3c2[C@H]1Cc1ccc(OCc2ccccc2)c(O)c1-3 = Yes
CN1CCc2cccc3c2[C@H]1Cc1ccc(OCCc2ccccc2)c(O)c1-3 = Yes
COc1cc2c(cc1OC)-c1c3c(c(OC)c4c1C(C2)N(C)CC4)OCO3 (centres unmarked) = No

Problem: Please determine if CCCCCCCCCOc1ccc2c(c1O)-c1cccc3c1[C@@H](C2)N(C)CC3.Cl is below 600 nM in terms of EC50.
Solution: No

Problem: Quick check: EC50 of COc1cc2c3c(c1O)-c1c(ccc(OC)c1OC)CC3N(C)CC2 (centres unmarked) under 600 nM?
Solution: Yes

###

- TESTED TARGET: dopamine D2 receptor (Homo sapiens (Human), UniProt P14416)
- ASSAY DETAILS: Test IV: dopamine D2 receptor binding activity (GeneBLAzer D2-Gqo5-NEAT-bla CHO-K1 Cell-based Assay)
- Experimental: In this test, the dopamine D2 receptor binding activity of each test compound was measured using GeneBLAzer D2-Gqo5-NEAT-bla CHO-K1 Cell-based Assay (Thermo Fisher Scientific, Inc.). […] Therefore, the binding activity of the test compound can be measured by measuring a blue fluorescence/green fluorescence ratio. […] The respective EC50 values of the test compounds were determined from the measured fluorescence ratios using GraphPad Prism 8.
ASSAY METRIC: dopamine D2 receptor binding activity (in words)

Take a look at these entries with their results.
COc1cc2c3c(c1O)-c1c(ccc(OC)c1OC)CC3N(C)CC2 (stereo not shown) [D26] = no or little
CCCCOc1ccc2c(c1O)-c1cccc3c1[C@@H](C2)N(C)CC3.Cl [D36] = no or little
COc1cc(O)c2c(c1)C[C@@H]1c3c(cc4c(c3-2)OCO4)CCN1C [D10] = no or little
CCCCCCCCCOc1ccc2c(c1O)-c1cccc3c1[C@@H](C2)N(C)CC3.Cl [D41] = no or little
COc1ccc2c(c1OC)C[C@@H]1c3c(cc4c(c3-2)OCO4)CCN1C [D8] = no or little

Quick one: give me dopamine D2 receptor binding activity (in words) for each item below, same order please.
1. CCCOc1ccc2c(c1O)-c1cccc3c1[C@@H](C2)N(C)CC3.Cl [D40]
2. COc1cc2c(cc1OC)-c1c3c(c(OC)c4c1C(C2)N(C)CC4)OCO3 (stereo not shown) [D20]
3. CN1CCc2cccc3c2[C@H]1Cc1ccc(OCCCCc2ccccc2)c(O)c1-3 [D50]
4. CCOc1ccc2c(c1O)-c1cccc3c1[C@@H](C2)N(C)CC3 [D55]
5. CN1CCc2cccc3c2[C@H]1Cc1ccc(OCCCO)c(O)c1-3.Cl [D38]

Solution:
1: no or little; 2: no or little; 3: no or little; 4: no or little; 5: no or little

Origin of the recorded values: patent US12441734B2
